System: Scirpus juncoides
Protocol Summary: Test Example 2: herbicidal effect test by treatment during growing period in paddy rice cultivation (seven days after seeding)
Assay type: in vivo
Assay Setup: 120 g/10a active ingredient, assessed 14 days after treatment, dry weight vs untreated area
Examples of compounds with documented Herbicidal rate (%) Scirpus juncoides follow.
Write the number in % without appending the unit.

[[record]]
compound = "Cc1c(Cc2ccccc2N(S(=O)(=O)C(F)(F)F)S(=O)(=O)C(F)(F)F)c(=O)on1Cc1ccc(C#N)cc1"
unit_tag = "%"
measured_value = 80

[[record]]
compound = "CCCOC(=O)N(c1ccccc1Cc1c(C)n(C(C)CC)oc1=O)S(=O)(=O)C(F)(F)F (centres unmarked)"
unit_tag = "%"
measured_value = 90

[[record]]
compound = "CCC(C)n1oc(=O)c(Cc2ccccc2N(C(C)=O)S(=O)(=O)C(F)(F)F)c1C (centres unmarked)"
unit_tag = "%"
measured_value = 90

[[record]]
compound = "Cc1c(Cc2ccccc2NS(=O)(=O)C(F)(F)F)c(=O)on1CCSC(C)C"
unit_tag = "%"
measured_value = 90

[[record]]
compound = "CCC(CC)n1oc(=O)c(Cc2ccccc2N(S(=O)(=O)C(F)(F)F)S(=O)(=O)C(F)(F)F)c1C"
unit_tag = "%"
measured_value = 80


Turning to the following compound.
Query block: Bench note: what Herbicidal rate (%) Scirpus juncoides did CCC(CC)n1oc(=O)c(Cc2ccccc2NS(=O)(=O)C(F)(F)F)c1C show?
Result block: 80
